Numbers sourced from PubChem BioAssay (NCATS).

Assay: P-glycoprotein substrates identified in KB-8-5-11 adenocarcinoma cell line, qHTS therapeutic library screen (AID 1346987); further: nearly all actives have a fitted effect of over 65% in size
Conditions: KB-8-5-11 (P-gp overexpressing) viability, CellTiter-Glo, 72 h; series mostly up to 44.5 µM
Inconclusive results are not listed. The source made the active and inactive calls. The call rests on the fitted dose curve; in most records, active means well fitted inhibition curve with a large enough effect; inconclusive means small, poorly fitted or top-dose-only effect; inactive means flat fitted curve, though single readings scatter.
OBSERVABLE: Potency

Some solved entries appear below for comparison.
- O=C(OCCO)c1ccccc1O: inactive
- COc1ccc(Cl)c(Nc2ncnc3cc(OCC4CCN(C)CC4)c(OC)cc23)c1: inactive
- CS(=O)(=O)NC(=O)CCC/C=C\C[C@H]1C(=O)C[C@@H](O)[C@@H]1/C=C/[C@H](O)COc1ccccc1: inactive
- CC(O)(C(=O)O)C1CCC2(C)C1CCC1(C)C2CCC2C3(C)CCC(O)C(C)(COC4OC(CO)C(O)C(O)C4O)C3CCC21C (stereo not given): inactive
- Cn1ncnc1[C@@H]1c2n[nH]c(=O)c3cc(F)cc(c23)N[C@H]1c1ccc(F)cc1: inactive

Below: the item to evaluate.
Query: Would you mind telling me what Potency value was observed for O=C(NO)c1ccc(CC(=O)N(CCO)c2ccccc2)cc1 ?
Response: inactive
